Overview of reported protease stability score across a group of sequences:
Test: protease stability score; higher = more stable; yeast display proteolysis, trypsin and chymotrypsin;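 note: log10 excess protease needed over predicted unfolded state with 0 meaning unfolded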

| Primary sequence | protease stability score |
| --- | --- |
| DEKQMEQVNKNMETGDWDKLQEQADEDVRLVVGEREFHGREQFSEFAKQAKRMVDDNTIHRIDLQGEKVKIKFVIKHNGRTVDVTVVMEVHNGRIKRYVLRARDEDAEDIIRKMLS | 0.902 |
| DEDNMHRLKEFLDNLNQGDEERLVELADEDVKLVYGEKRYHGREELTKTLETQRDQMRVDYKVKSMSVSNGRVHADIEASNTKNGKPKRFKVRVHAEFHNGRLQVYNQQEDK | 0.42 |
| DEDALTRIEDAAKHMNEGNFERYADMADPNAHVNIGDKTYQGRESLKHLMQEQRERWEFKLDVRRVDQDGEKAVVTAKVNQKHNGKPDTKTVYIYVSWKNGRAQEIEVRQDS | 0.319 |
| DDQEVKKLAHEVQKILEHGDPDQFADLFDKDARMTVGDKDLHGRERIRELAQRQQDRIDHVQLEEYQVHNGRVVLKMRVNVNGHDETINMTLHQRNGKVKEFTQQSR | 0.071 |
| DEELLKELLKYLKVREHGDKDKFERMADPNAKIHVGDREVHGREHLAKEIKTEKEEMEVSVDRYTQRVNGDKARLKVDFKVEHNGKPERRAHVLVMHTHNGKIKSLKAQDTD | -0.111 |
| DEKQLTLLRRIFEALLRNDEDKLKDLLDPNVKVRYGDKDLHGRENVAESIVRTNQEARFHVRRVTFRDHNGQAKVKVDFDQQHNGQPRSARLDVSMQRHNGRVKSISFKVDT | 0.649 |
| DEKHVKKVVDRVLDALEKKNKDELVKLVKPDVEFHVADTKFEGTDQLHKYYDKVFRKGVEFHVKEVKVEGNKAQVRYDVRAGGHQETVQFEVTVKDERVDRARAEMTEKYKKLVTKG | 0.086 |
| DESITEFASHWKEVLEHGDFRRMADNVDEDVKVRIGDKEIHGRTRYRRRAKKQEDEISFRLQDLHVEVQGDHIVAKFQATVKINGQPNTFTVNVVMRVHNGRIKYMEQQFSEEDEDKLTQ | 0.534 |
| DEEDQKHAESFFRNLINNNPEKLKEMADPNAEFEVGDKTLNGTEDLSKWAQKLKDQARMSIQSLTIRVENGRLSATMTFEVEHNGQPDRMKITAHASITNGKITHFMLRLDPKQYKSWVG | 0.493 |
| DNEDAQQAIQMLKAELDGDEERAAQLMDPNARFNIGDKEIHGRETFQHWLREVKKHMHVKIDRLEIDVEGDKVDVRMEFVQNHNGKPHRAEATVEVRAENGHVKEVTVDVKG | 0.551 |
| DDQKVRVASELLKAIERGDPDQARELMDENAKMVIGETTFTGRDEAAKWISELKKHMRVQIQSVTFHDHNGQIVVNVTFEANINGDPFTMNLIVRVQVHNGRVQNVHYRLSEEQKRRLEQ | 0.969 |
| DDDAQRRLEDQLKQIEEGNPEQIRNQVDPNATLRYGDKTIQGREEIVKWWKRIRDESRIQFHLKSMEVSGDQVRVVFNLVVKHNGKPSHSQVVVTLRFHNGKVTEVSMQHTS | 1.71 |
| DETRMRELDKVFHHNDPDKMRENLDENVRMVVGDKSFTGRHQVQDWLKIFHDQVDHFEVESLTKEGNKIDVVYRAVVNGQEFRMRVDITVHNGRIKMIKVDFTNEDETRQFLEHIK | 1.55 |
| DEELQSQAERFLKNLQRGDETKLLQQMDPNAKMQYGDKTVHGRERLRTWVKHVKDEMRVQVDKFRQTVSGNHIRFDWDATFNINGTPDKIRIDVDIQVHNGRIKLITFRVSEEQTKRLHS | 0.371 |
| DPKKVEDVAKKVAKAFQDGNEEELKKHLDPTGRAKIADEETQGIEQIIKKLKKVMKLGVQVENKETRYEGNRVEFHTEYRDGDKQATMTVVYHADNGKVKEIRVQYDRDAKEMYEKG | 0.658 |
| DEDALRKFKEFLEIKREGDERRLLELFDENVKIVVGDTELEGMTEAARDITRKRKEMRVEQRYDRFHVQGEHIRARARFTVKFNGRPHTNENTFRVVLRNGHYKSYELKIDPDELRKLDS | -0.083 |
| DEDEKRELARRFAKNFLHGDHDNIRDLADKDVDAQVGDQTFTGTEQLMRVVKEVRDRVDHFNLTSVDVHNGQADIHARAKVNGRDYRVKIRIKIHNGRILHVQFNRR | 1.18 |
| DEDTNREQVKRFEEAQQENDPDKWMDNLDENARLDVGDTRVHGSKEIMKHFKRLNDKIDHWRVQSFEFHNGRMKLNAVARVNGKRLKMQFQANVHNGKFTELRMDPDAVRKITS | 0.413 |
| DHKLHHQLHRLIKALQTGDPDKIRELVDPNVEFVVGEKRYKGREDYVTDFKERLDHIRLDNDVRDVEVHGNKMRANIQTEVQDDGQPRTYQVRLDASAHNGKVKSLKVDKKP | -0.059 |
| DDHDAKRAAKHVENGDPEQITNLFDEDARVHIGDFRIHGREDAKKWADHYRDQVDHLEYEDYRISGDTVVIVFQINVNGKRVRLRLEFRVHNGRIKEMTVEFTSEDDEKRVLKIMS | 0.531 |
| DERKRAEKALNEWQRMWKYGNEEDFQKLADENVHFKYGDKTYRGREKMRKWVKEVLDSVDHVEVRIVSLHVRGDKITVRIRIYMEHNGRRTSFEYTMQLVDNNGHIVIVRFEQN | 0.203 |
| DETAVKVIHKVVEAINTNNPKQVMKNMDKDVHITVGDKEYEGKEEFAKQVERDLREQRVDIDIKRLNVHNGKVHVKFTAQQQINGKPISYKATARAEVQNGKVQHMEIRVPEELQRKRES | -0.272 |

----------
Overview of reported protease stability score across a group of sequences:
Assay: protease stability score; higher = more stable; yeast display proteolysis, trypsin and chymotrypsin;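 note: log10 excess protease needed over predicted unfolded state with 0 meaning unfolded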

| Primary sequence | protease stability score |
| --- | --- |
| DEEEAHKVQEAWKTGDPDHLRDLFDKDVRLVYGDQEVHGREELVKIFKKQQDQYDHQHIERVSLTGNRVEIRYKAVVNGQTVSRVIYIKIKNGRIKEMEIRATNPEELKEMYRLAS | 0.284 |
| DEQHDREMVSRLKTALQHGDPDELVELADENARVEIGEKTVHGRHQIREQAKRWRERVDHVQIEDVDVQNGQARVQMTVDHNGRTRKEVVQMTAHNGTVESLRFQSQ | -0.216 |
| DEEDKKKLNHTVANVIQHGDEKQARRLMDPNVKVVIGDKTYNGRHKATEALKTLRDRADEIRVHDFRLEGDHINIIIELHINGQQTTLEIEVQFSGDKIKSVVFKTR | 0.795 |
| DESMQKEVHDFLKAQMTNNEDQLRRQADPNARFVYGNKTLHGMDQAAKHLVKLYREATFRIESVSIDAQGDKADIKQTFIVDINGKPDRDTADIKIKFHNGTIKEVNIQVDEEKERKIRS | -0.218 |
| DEDNAERVHTALDILERGNPEEVKKMFRDDVRATIGDTVIHGMTNFAHYMQRLMDHARVNITIRSWSVKNGRVEIDAEIHANHNGQPYHDRFKIKAEVTNGRFKYLQYDIDPDFLRDMTK | 1.25 |
| DEDQVRRVADKMFKMAVNGNKDEMKKLGKPNVEYKYLDKEYEGPDALKRVADKVKKIGAKVETQRREVKGDKVTAVFRYNDGDHTVQTTAEVQYEGDVVDRARVEITDEVKKVAHKG | -0.093 |

----------
Test: protease stability score; higher = more stable; yeast display proteolysis, trypsin and chymotrypsin;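 note: log10 excess protease needed over predicted unfolded state with 0 meaning unfolded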
Overview of reported protease stability score across a group of sequences:
Observed property: protease stability score

| Primary sequence | Observed property | Number |
| --- | --- | --- |
| DEEAKKLADEWADAVNKNDEKSLKDLVDPNAKFRVGNQEYHGREQLEEFLSKWMSEWRHSLEDWRVNVQGDTVVLTAKLNVDVNGKPARVDAHVEFVVHNGRIKSQSEQFDEQRLRDNKS | protease stability score | 0.521 |
| DDKEAHKRARQLVRIVQTGNESDVRKLFDKNARVVIGDKTFHGRENVQKAVREMRERVDHVQVHRVRAQGNKVRALVQYDINGKQEHYNFDMTFHNGRAKSMVVKES | protease stability score | 0.812 |
| DDRHEMKTALKQLIDAIRQGNPDTIMSLLDPNVTFTYGDQNIRGREHVNTELVHRRNRVDNVHVNLQDIDQDGEKLHARFQMVLRRNGRNDTRDMVLVAQVHNGKARIRRLHHG | protease stability score | 0.557 |

----------
Assay: protease stability score; higher = more stable; yeast display proteolysis, trypsin and chymotrypsin;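 note: log10 excess protease needed over predicted unfolded state with 0 meaning unfolded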

| Primary sequence | protease stability score |
| --- | --- |
| DEDSEFEAARRFFKAVQTGDEDEAMRQMDEDASARVGDKTYHGREHARKAMHNFRQEVDHIDVTTFDKSNGRLDVNAILEHNGKTKSVKINIQASNGHVKSVNIQDK | -0.103 |
| DEKLHHQIKEFIKAMKNGDPDKVQELADPNAEFRVGDKEIHGMDKYHKTVHDRHRKQRVNIQLHQLTVKGDKAEFVVTIDVQHNGQPSNDVYRAVIKLKNGKIQVVDRQKDQ | -0.138 |
| DEEKKANHFNKEFDRNVQRNNETELRKMVDPNARVNVGEQNYSGRNKMVKIITDWLRKYDKFTIDVRRIDVHGNRIFIDFEMVVVSNGQRRTTEIRVVVEEHNGRLHIRVWEIT | 0.516 |
| EEESAQEFMKNLNTGNFEELNKMADENARMQVGDKTFQGRHQIETLLKTLKKQIDHVSFKSVEMNGDKVDAKVVFQVNGQHFEVIVKVDVRGDRVTHVTYEFTNEDQEERFKRAVQ | 1.35 |
| EEELRHTAHELQKAYEENDPEKILENLDPNAQVQIGDRRVHGRHEIRKLMEHFERQARVRVHDVKVDVHGNKINIQVDAEQNHNGEPRSFTVQAEMTMHNGRVKSIDMKIQG | 0.612 |
| DHELVEQLHRFWTAVDENDPDKLKENADPNAHFVIGDKTYRGREDFARTIERELDTMEMRFDTMTVTIHNGRLDAKFRYVVRHNGNPQQHKVDAKAEMSNGKIQRLNMQKRP | -0.197 |
